- tested_target: rat A2A receptors (rA2A) (Rattus norvegicus)
- Construct: to A2A receptors from rat striatal membranes was performed as described; from tissue; host or cells: rat striatal membranes
- experimental_details: Displacement of [3H]CGS 21680 binding in rat striatal membranes
- settings: Table 4; read-out: rA2A Ki
experimental_readout: Ki

Examples with answers:
Entry under test: CCCn1c(=O)c2[nH]c(-c3ccc(OCC(=O)NNC(=O)C4=C(C(=O)O)CCC4)cc3)nc2n(CCC)c1=O [Compound 53] . Its Ki was 708 nM

Entry under test: CCCn1c(=O)c2[nH]c(-c3ccc(OCC(=O)NNC(=O)CCC(=O)O)cc3)nc2n(CCC)c1=O [Compound 42] . Its Ki was 174 nM

Entry under test: CCCn1c(=O)c2[nH]c(-c3ccc(OCC(=O)NN4C(=O)CCC(c5ccccc5)C4=O)cc3)nc2n(CCC)c1=O (centres unmarked) [Compound 45] . Its Ki was 21.4 nM

Entry under test: CCCn1c(=O)c2[nH]c(-c3ccc(OCC(=O)NN4C(=O)CCC4=O)cc3)nc2n(CCC)c1=O [Compound 43] . Its Ki was 805 nM

Entry under test: CCCn1c(=O)c2[nH]c(-c3ccc(OCC(=O)NN4C(=O)CCCC4=O)cc3)nc2n(CCC)c1=O [Compound 58] . Its Ki was 135 nM

Next:
Entry under test: CCCn1c(=O)c2[nH]c(-c3ccc(OCC(=O)NN4C(=O)C(C)=C(C)C4=O)cc3)nc2n(CCC)c1=O [Compound 47] . Its Ki was 126 nM

Entry under test: CCCn1c(=O)c2[nH]c(-c3ccc(OCC(=O)NN4C(=O)[C@H]5CC=CC[C@H]5C4=O)cc3)nc2n(CCC)c1=O [Compound 52] . Its Ki was 689 nM

Entry under test: CCCn1c(=O)c2[nH]c(-c3ccc(OCC(=O)NN4C(=O)CC[C@H](NC(=O)C(F)(F)F)C4=O)cc3)nc2n(CCC)c1=O [Compound 61] . Its Ki was 440 nM

###

- tested_target: rat A2A receptors (rA2A) (Rattus norvegicus, UniProt P30543)
- Construct: to A2A receptors from rat striatal membranes was performed as described; from tissue; host or cells: rat striatal membranes
- Sequence (P30543 whole entry): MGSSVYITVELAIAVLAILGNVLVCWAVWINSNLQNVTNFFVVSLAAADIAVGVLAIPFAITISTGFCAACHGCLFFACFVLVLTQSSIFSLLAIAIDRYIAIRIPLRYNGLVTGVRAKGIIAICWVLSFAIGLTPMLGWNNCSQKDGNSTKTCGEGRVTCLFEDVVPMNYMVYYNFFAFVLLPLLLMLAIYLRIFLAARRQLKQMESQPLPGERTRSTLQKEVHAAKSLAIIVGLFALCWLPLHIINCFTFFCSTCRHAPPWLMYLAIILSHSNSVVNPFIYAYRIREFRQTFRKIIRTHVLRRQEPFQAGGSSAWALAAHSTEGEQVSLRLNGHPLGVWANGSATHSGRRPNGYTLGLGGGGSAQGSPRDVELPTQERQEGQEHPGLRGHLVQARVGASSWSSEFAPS
- experimental_details: Displacement of [3H]CGS 21680 binding in rat striatal membranes
- settings: Table 4; read-out: rA2A Ki
Just a reminder that ties go to rule not met: only Ki strictly below 0.6 µM counts as rule met.

Query string: Hello, I'm reviewing records and need to know if Ki of CCCn1c(=O)c2[nH]c(-c3ccc(OCC(=O)NN4C(=O)C[C@H](NC(=O)C(F)(F)F)C4=O)cc3)nc2n(CCC)c1=O is below 0.6 µM. Could you check?
Result string: rule met

Next:
Query string: Hello, I'm reviewing records and need to know if Ki of CCCn1c(=O)c2[nH]c(-c3ccc(OCC(=O)NN4C(=O)C=C(C)C4=O)cc3)nc2n(CCC)c1=O is below 0.6 µM. Could you check?
Result string: rule not met

Query string: Hello, I'm reviewing records and need to know if Ki of CCCn1c(=O)c2[nH]c(-c3ccc(OCC(=O)NN4C(=O)C5=C(CCCC5)C4=O)cc3)nc2n(CCC)c1=O is below 0.6 µM. Could you check?
Result string: rule met

Query string: Hello, I'm reviewing records and need to know if Ki of CCCn1c(=O)c2[nH]c(-c3ccc(OCC(=O)NN4C(=O)C5=C(CCC5)C4=O)cc3)nc2n(CCC)c1=O is below 0.6 µM. Could you check?
Result string: rule not met

Query string: Hello, I'm reviewing records and need to know if Ki of CCCn1c(=O)c2[nH]c(-c3ccc(OCC(=O)NN4C(=O)c5ccccc5C4=O)cc3)nc2n(CCC)c1=O is below 0.6 µM. Could you check?
Result string: rule met

Query string: Hello, I'm reviewing records and need to know if Ki of CCCn1c(=O)c2[nH]c(-c3ccc(OCC(=O)NNC(C)=O)cc3)nc2n(CCC)c1=O is below 0.6 µM. Could you check?
Result string: rule met

###

log10 of Ki by entry:
- tested_target: human A2B receptors (hA2B) (Homo sapiens, UniProt P29275)
- Construct: expressed in transfected cells; host or cells: HEK-293 (HEK-A2B, G418-selected)
- Sequence (P29275 1-332): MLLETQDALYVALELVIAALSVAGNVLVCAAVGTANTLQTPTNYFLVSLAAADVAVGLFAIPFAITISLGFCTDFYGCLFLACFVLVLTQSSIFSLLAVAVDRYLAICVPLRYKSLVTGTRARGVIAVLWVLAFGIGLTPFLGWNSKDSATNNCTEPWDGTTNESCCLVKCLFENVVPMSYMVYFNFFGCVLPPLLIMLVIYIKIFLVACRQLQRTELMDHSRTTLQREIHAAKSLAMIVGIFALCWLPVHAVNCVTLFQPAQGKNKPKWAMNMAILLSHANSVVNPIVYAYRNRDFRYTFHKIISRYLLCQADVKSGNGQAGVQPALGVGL
- experimental_details: Radioligand binding ([125I]ABOPX / [3H]ZM241385) at human A2B receptors expressed in HEK-293 cells
- settings: Table 2; read-out: hA2B Ki or IC50
Scale: decimal log of Ki, Ki in nM.

Examples with answers:
Entry under test: CCCn1c(=O)c2[nH]c(-c3ccc(OCC(=O)Nc4ccc(C)cc4)cc3)nc2n(CCC)c1=O . Its log10 of Ki was 0.27

Entry under test: CCCn1c(=O)c2[nH]c(-c3ccc(OCC(=O)N(Cc4ccccc4)Cc4ccccc4)cc3)nc2n(CCC)c1=O . Its log10 of Ki was 0.99

Entry under test: CCCn1c(=O)c2[nH]c(-c3ccc(OCC(=O)Nc4ccc(C(=O)OC)cc4)cc3)nc2n(CCC)c1=O . Its log10 of Ki was 0.59

Next:
Entry under test: CCCn1c(=O)c2[nH]c(-c3ccc(OCC(=O)Nc4ccc(O)cc4)cc3)nc2n(CCC)c1=O . Its log10 of Ki was 0.57

Entry under test: CCCn1c(=O)c2[nH]c(-c3ccc(OCC(=O)Nc4ccc(F)cc4)cc3)nc2n(CCC)c1=O . Its log10 of Ki was 0.35

Entry under test: CCCn1c(=O)c2[nH]c(-c3ccc(OCC(=O)N(CC(=O)OCC)CC(=O)OCC)cc3)nc2n(CCC)c1=O . Its log10 of Ki was 1.64

Entry under test: CCCn1c(=O)c2[nH]c(-c3ccc(OCC(=O)Nc4ccc(Br)cc4)cc3)nc2n(CCC)c1=O . Its log10 of Ki was 0.37

Entry under test: CCCn1c(=O)c2[nH]c(-c3ccc(OCC(=O)Nc4ccc(C(=O)O)cc4)cc3)nc2n(CCC)c1=O . Its log10 of Ki was 1.21

Entry under test: CCCn1c(=O)c2[nH]c(-c3ccc(OCC(=O)Nc4ccc(C(N)=O)cc4)cc3)nc2n(CCC)c1=O . Its log10 of Ki was 0.89

Entry under test: CCCn1c(=O)c2[nH]c(-c3ccc(OCC(=O)Nc4ccccc4)cc3)nc2n(CCC)c1=O . Its log10 of Ki was 0.17

Entry under test: CCCn1c(=O)c2[nH]c(-c3ccc(OCC(=O)Nc4cccc(C(C)=O)c4)cc3)nc2n(CCC)c1=O . Its log10 of Ki was 0.69

Entry under test: CCCn1c(=O)c2[nH]c(-c3ccc(OCC(=O)Nc4ccc(C(=O)NC)cc4)cc3)nc2n(CCC)c1=O . Its log10 of Ki was 0.52

Entry under test: CCCn1c(=O)c2[nH]c(-c3ccc(OCC(=O)N(C)c4ccccc4)cc3)nc2n(CCC)c1=O . Its log10 of Ki was 0.73

###

- tested_target: rat A2A receptors (rA2A) (Rattus norvegicus)
- Construct: to A2A receptors from rat striatal membranes was performed as described; from tissue; host or cells: rat striatal membranes
- experimental_details: Displacement of [3H]CGS 21680 binding in rat striatal membranes
- settings: Table 4; read-out: rA2A Ki
pKi by entry:
# log scale: pKi equals minus log10 of the concentration in mol/L

Examples with answers:
Entry under test: CCCn1c(=O)c2[nH]c(-c3ccc(OCC(=O)NN)cc3)nc2n(CCC)c1=O . Its pKi was 7.20

Entry under test: CCCn1c(=O)c2[nH]c(-c3ccc(OCC(=O)NNC(=O)C4CC=CCC4C(=O)O)cc3)nc2n(CCC)c1=O (stereo not shown) . Its pKi was 6.09

Entry under test: CCCn1c(=O)c2[nH]c(-c3ccc(OCC(=O)NN4C(=O)CC(O)CC4=O)cc3)nc2n(CCC)c1=O . Its pKi was 6.79

We next turn to a different compound, shown below.
Entry under test: CCCn1c(=O)c2[nH]c(-c3ccc(OCC(=O)NN4C(=O)C(c5ccccc5)=C(c5ccccc5)C4=O)cc3)nc2n(CCC)c1=O . Its pKi was 5.68
